# Tested on: Lamium purpureum
# test_protocol: Postemergence herbicidal activity in cereal crops
# Assay type: in vivo
# condition_info: Lamium purpureum, post-emergence, 480 h; post-emergent, 35 g ai/ha, after 20-22 days; read-out: % Control LAMPU
Consider the following molecules and their measured pest or weed control at 35 g/ha readings.
parameter_measured: pest or weed control at 35 g/ha (%)

[[record]]
molecule = "COC(=O)c1nc(-c2ccc(Cl)c(OC)c2Cl)cc(N)c1Cl"
parameter_measured = "pest or weed control at 35 g/ha"
endpoint_value = 99

[[record]]
molecule = "COc1c(Cl)ccc(-c2cc(N)c(Cl)c(C(=O)O)n2)c1Cl"
parameter_measured = "pest or weed control at 35 g/ha"
endpoint_value = 95

[[record]]
molecule = "COC(=O)c1nc(-c2ccc(Cl)c(C(F)C(F)(F)F)c2F)cc(N)c1Cl (centres unmarked)"
parameter_measured = "pest or weed control at 35 g/ha"
endpoint_value = 95

[[record]]
molecule = "COC(=O)c1nc(-c2ccc(Cl)c(OC)c2F)c(F)c(N)c1Cl"
parameter_measured = "pest or weed control at 35 g/ha"
endpoint_value = 95

[[record]]
molecule = "COC(=O)c1nc(-c2c(F)cc(C)c(OC)c2F)cc(N)c1Cl"
parameter_measured = "pest or weed control at 35 g/ha"
endpoint_value = 70


* * *

parameter_measured: melting point

[[record]]
structure_as_smiles = "COc1c(C(F)(F)F)ccc(-c2cc(N)c(Cl)c(C(=O)O)n2)c1F"
endpoint_value = "177 to 178 °C (dec.)"

[[record]]
structure_as_smiles = "CCN(CC)c1c(Cl)ccc(-c2cc(N)c(Cl)c(C(=O)OC)n2)c1F"
endpoint_value = "120 to 121 °C"

[[record]]
structure_as_smiles = "Nc1c(F)c(-c2ccc3c(c2F)OCO3)nc(C(=O)O)c1Cl"
endpoint_value = "179 to 180 °C"

[[record]]
structure_as_smiles = "CCOc1c(Cl)ccc(-c2cc(N)c(Cl)c(C(=O)OC)n2)c1F"
endpoint_value = "154 to 156 °C"

[[record]]
structure_as_smiles = "COC(=O)c1nc(-c2ccc(C(F)F)c(OC)c2F)cc(N)c1Cl"
endpoint_value = "145 to 147 °C"

[[record]]
structure_as_smiles = "COCCOc1c(Cl)ccc(-c2cc(N)c(Cl)c(C(=O)OC)n2)c1F"
endpoint_value = "89 to 90 °C"

[[record]]
structure_as_smiles = "Cc1c(Cl)ccc(-c2cc(N)c(Cl)c(C(=O)O)n2)c1F"
endpoint_value = "179 to 181 °C (dec.)"

[[record]]
structure_as_smiles = "CCc1c(Cl)ccc(-c2cc(N)c(Cl)c(C(=O)O)n2)c1F"
endpoint_value = "192 to 193 °C (dec.)"

[[record]]
structure_as_smiles = "CCCCOc1c(Cl)ccc(-c2cc(N)c(Cl)c(C(=O)O)n2)c1F"
endpoint_value = "157 to 158 °C (dec.)"

[[record]]
structure_as_smiles = "COC(=O)c1nc(-c2ccc(F)c(F)c2F)cc(NC(C)=O)c1Cl"
endpoint_value = "169 to 171 °C"

[[record]]
structure_as_smiles = "COC(=O)c1nc(-c2ccc(Cl)c(OCC(F)F)c2F)cc(N)c1Cl"
endpoint_value = "134 to 136 °C"

[[record]]
structure_as_smiles = "COCOc1c(Cl)ccc(-c2cc(N)c(Cl)c(C(=O)O)n2)c1F"
endpoint_value = "159 °C (dec.)"

[[record]]
structure_as_smiles = "COCc1c(Cl)ccc(-c2cc(N)c(Cl)c(C(=O)OC)n2)c1F"
endpoint_value = "116 to 117 °C"

[[record]]
structure_as_smiles = "CCCCOCCOC(=O)c1nc(-c2ccc(Cl)c(OC)c2F)cc(N)c1Cl"
endpoint_value = "72 to 74 °C"

[[record]]
structure_as_smiles = "COc1c(C)ccc(-c2cc(N)c(Cl)c(C(=O)O)n2)c1F"
endpoint_value = "178 to 179 °C"

[[record]]
structure_as_smiles = "COC(=O)c1nc(-c2ccc(Cl)c(C(F)F)c2Cl)cc(NC(C)=O)c1Cl"
endpoint_value = "152 to 153 °C"

[[record]]
structure_as_smiles = "CNc1c(Cl)ccc(-c2cc(N)c(Cl)c(C(=O)O)n2)c1F"
endpoint_value = "185 to 186 °C"

[[record]]
structure_as_smiles = "COC(=O)c1nc(-c2ccc(Cl)c(N(C)C)c2F)cc(N)c1Cl"
endpoint_value = "104 to 106 °C"

[[record]]
structure_as_smiles = "COC(=O)c1nc(-c2c(F)cc(Cl)c(OC)c2F)cc(NC(C)=O)c1Cl"
endpoint_value = "144 to 144.5 °C"


* * *

# Test system: redroot pigweed (Amaranthus retroflexus)
# test_protocol: Postemergence herbicidal activity
# Type: in vivo
# condition_info: Amaranthus retroflexus, post-emergence, 336 h, post-emergent, 140 g ai/ha, after 14 days; read-out: % Control AMARE
parameter_measured: pest or weed control at 140 g/ha

[[record]]
structure_as_smiles = "COc1c(C)ccc(-c2cc(N)c(Cl)c(C(=O)O)n2)c1F"
endpoint_value = "100%"

[[record]]
structure_as_smiles = "COC(=O)c1nc(-c2ccc(Cl)c(C3CC3)c2F)cc(N)c1Cl"
endpoint_value = "100%"

[[record]]
structure_as_smiles = "CCOc1c(Cl)ccc(-c2cc(N)c(Cl)c(C(=O)OC)n2)c1Cl"
endpoint_value = "90%"

[[record]]
structure_as_smiles = "COc1cc(-c2cc(N)c(Cl)c(C(=O)O)n2)c(F)cc1Cl"
endpoint_value = "100%"

[[record]]
structure_as_smiles = "COc1c(Cl)ccc(-c2cc(N)c(Cl)c(C(=O)O)n2)c1F"
endpoint_value = "100%"

[[record]]
structure_as_smiles = "COC(=O)c1nc(-c2ccc(Cl)c(C(F)F)c2F)cc(N)c1Cl"
endpoint_value = "100%"

[[record]]
structure_as_smiles = "Nc1c(F)c(-c2ccc3c(c2F)OCO3)nc(C(=O)O)c1Cl"
endpoint_value = "100%"

[[record]]
structure_as_smiles = "COC(=O)c1nc(-c2ccc(C(F)(F)F)c(OC)c2F)cc(N)c1Cl"
endpoint_value = "80%"

[[record]]
structure_as_smiles = "COC(=O)c1nc(-c2ccc(Cl)c(OCC(F)F)c2Cl)cc(N)c1Cl"
endpoint_value = "100%"


* * *

# Test system: redroot pigweed (Amaranthus retroflexus)
# test_protocol: Postemergence herbicidal activity
# Assay type: in vivo
# condition_info: Amaranthus retroflexus, post-emergence, 336 h, post-emergent, 140 g ai/ha, after 14 days; read-out: % Control AMARE
Consider the following compounds and their measured pest or weed control at 140 g/ha readings.
parameter_measured: pest or weed control at 140 g/ha (%)

[[record]]
compound = "COC(=O)c1nc(-c2ccc(Cl)c([S+](C)[O-])c2F)cc(N)c1Cl (stereo not shown) [Compound 83]"
endpoint_value = 85

[[record]]
compound = "Nc1cc(-c2ccc(Cl)c(C(F)C(F)(F)F)c2F)nc(C(=O)O)c1Cl (stereo not shown) [Compound 129]"
endpoint_value = 95

[[record]]
compound = "Nc1cc(-c2ccc(Cl)c(C(F)F)c2F)nc(C(=O)O)c1Cl [Compound 106]"
endpoint_value = 100

[[record]]
compound = "COC(=O)c1nc(-c2ccc(CF)c(OC)c2F)cc(N)c1Cl [Compound 72]"
endpoint_value = 20

[[record]]
compound = "COC(=O)c1nc(-c2ccc(Cl)c(C(F)C(F)(F)F)c2F)cc(N)c1Cl (stereo not shown) [Compound 65]"
endpoint_value = 100

[[record]]
compound = "COC(=O)c1nc(-c2ccc(C#N)c(OC)c2F)cc(N)c1Cl [Compound 6]"
endpoint_value = 100

[[record]]
compound = "COC(=O)c1nc(-c2ccc(Cl)c(C)c2F)cc(N)c1Cl [Compound 49]"
endpoint_value = 80

[[record]]
compound = "COC(=O)c1nc(-c2ccc(Cl)c(OC(F)F)c2F)cc(N)c1Cl [Compound 69]"
endpoint_value = 100

[[record]]
compound = "COC(=O)c1nc(-c2c(F)cc(Cl)c(OC)c2Cl)cc(N)c1Cl [Compound 57]"
endpoint_value = 100

[[record]]
compound = "COC(=O)c1nc(-c2ccc(Cl)c(OC)c2F)c(F)c(N)c1Cl [Compound 14]"
endpoint_value = 100

[[record]]
compound = "CCCCOC(=O)c1nc(-c2ccc(Cl)c(C(C)F)c2F)cc(N)c1Cl (stereo not shown) [Compound 91]"
endpoint_value = 100

[[record]]
compound = "COC(=O)c1nc(-c2cc(OC)c(Cl)cc2F)c(F)c(N)c1Cl [Compound 15]"
endpoint_value = 100

[[record]]
compound = "COc1c(C)cc(F)c(-c2cc(N)c(Cl)c(C(=O)O)n2)c1F [Compound 93]"
endpoint_value = 100

[[record]]
compound = "COC(=O)c1nc(-c2ccc(F)c(F)c2F)cc(NC(C)=O)c1Cl [Compound 33]"
endpoint_value = 95

[[record]]
compound = "COC(=O)c1nc(-c2cc(N(C)C)c(Cl)cc2F)cc(N)c1Cl [Compound 26]"
endpoint_value = 100

[[record]]
compound = "COc1c(Br)ccc(-c2cc(N)c(Cl)c(C(=O)O)n2)c1Cl [Compound 121]"
endpoint_value = 95

[[record]]
compound = "COc1c(Cl)ccc(-c2nc(C(=O)O)c(Cl)c(N)c2F)c1F [Compound 123]"
endpoint_value = 100

[[record]]
compound = "Nc1cc(-c2ccc3c(c2F)OCO3)nc(C(=O)O)c1Cl [Compound 108]"
endpoint_value = 100

[[record]]
compound = "COCc1c(Cl)ccc(-c2cc(N)c(Cl)c(C(=O)O)n2)c1F [Compound 105]"
endpoint_value = 98

